# TEST_SYSTEM: T1, monkey CD73 (Novoprotein, Cat No. C121) (monkey, UniProt A0A2K5V5U7 27-549)
# T1 construct: Bought protein; also called monkey CD73 protein
# T1 sequence: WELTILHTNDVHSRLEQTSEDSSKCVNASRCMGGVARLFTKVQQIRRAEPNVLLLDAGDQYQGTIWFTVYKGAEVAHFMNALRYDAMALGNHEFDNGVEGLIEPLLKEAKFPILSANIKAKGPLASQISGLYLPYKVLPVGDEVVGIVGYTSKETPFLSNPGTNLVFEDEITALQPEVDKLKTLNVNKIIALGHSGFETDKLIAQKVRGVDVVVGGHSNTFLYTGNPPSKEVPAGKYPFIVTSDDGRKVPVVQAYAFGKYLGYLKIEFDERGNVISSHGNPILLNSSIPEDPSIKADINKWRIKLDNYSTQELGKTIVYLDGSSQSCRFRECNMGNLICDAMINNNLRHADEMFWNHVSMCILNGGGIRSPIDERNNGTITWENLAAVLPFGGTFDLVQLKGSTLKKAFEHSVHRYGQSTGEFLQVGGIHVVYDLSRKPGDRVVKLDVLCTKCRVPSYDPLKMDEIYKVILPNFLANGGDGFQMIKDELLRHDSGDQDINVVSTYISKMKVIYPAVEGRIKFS
# EXPERIMENT_NOTES: SPR (Biacore T200), antibody captured on protein A chip, CD73 as analyte, 1:1 model
MEASURED_METRIC: pKd
Convention used: pKd is expressed as -log10 of the molar concentration.

Q. Give pKd for 900698 (antibody, V domains shown, Constant regions are not restated) VH: QVQLVESGGGLVKPGGSLRLSCAASGFTFSKYAMSWIRQAPGKGLEWVAEISSGGGYINYADSVKGRFTISRDNAKNSLYLQMNSLRAEDTAVYYCARAIYYYGSSYNYYAMDYWGQGTTVTVSS VL: DIQMTQSPSSLSASVGDRVTITCRASQDVGTAEAWYQQKPGKAPKLLIYWASTRHTGVPSRFSGSGSGTDFTLTISSLQPEDFATYYCQQYSSYPLTFGQGTKLEIK
A. 8.85

Q. Give pKd for 900697 (antibody, V domains shown, Constant regions are not restated) VH: QVQLVESGGGLVKPGGSLRLSCAASGFTFSKYAMSWVRQAPGKGLEWVAEISSGGGYINYADSVTGRFTISRDNAKNSLYLQMNSLRAEDTAVYYCARAIYYYGSSYNYYAMDYWGQGTTVTVSS VL: DIQMTQSPSSLSASVGDRVTITCRASQDVGTAEAWYQQKPGKAPKLLIYWASTLQSGVPSRFSGSGSGTDFTLTISSLQPEDFATYYCQQYSSYPLTFGQGTKLEIK
A. 8.67

Q. Give pKd for 900581 (antibody, human IgG1, V domains shown) VH: EVQLVESGGGLVKPGGSLKLSCAASGFTFSKYAMSWVRQSPEKRLEWVAEISSGGGYINYPDTVTGRFTISRDNAKNTLYLEMSSLRSGDTAMYYCARAIYYYGSSYNYYAMDYWGQGTSVTVSS VL: DIVMTQSHKFMSTSVGDRVSITCKASQDVGTAEAWYQQKPGQSPKLLIYWASTRHTGVPDRFTGSGSGTDFTLTIGNVQSEDLADYFCQQYSSYPLTFGGGTKLEIK
A. 8.98

Q. Give pKd for 900695 (antibody, V domains shown, Constant regions are not restated) VH: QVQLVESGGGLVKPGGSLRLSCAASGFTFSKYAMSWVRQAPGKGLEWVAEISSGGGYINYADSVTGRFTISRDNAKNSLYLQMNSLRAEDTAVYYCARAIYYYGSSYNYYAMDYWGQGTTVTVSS VL: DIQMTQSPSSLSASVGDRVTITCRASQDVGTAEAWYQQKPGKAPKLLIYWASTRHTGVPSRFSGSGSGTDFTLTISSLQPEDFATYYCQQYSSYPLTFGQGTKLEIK
A. 9.09
